Tested on: Ala30Pro mutant α-synuclein induced failure of neurotransmission
Test: Squid giant synapse: prevention of Ala30Pro α-synuclein induced failure of neurotransmission
Assay type: cell-based
Details: co-injection / coperfusion with Ala30Pro α-synuclein
assay.metric: prevention of Ala30Pro α-synuclein effect on neurotransmission

COC(=O)CC[C@H](NC(=O)[C@H](CC(=O)OC)NC(=O)OCc1ccccc1)C(=O)N[C@H](C(=O)N[C@@H](CC(=O)OC)C(=O)CF)C(C)C [Caspase3 Inhibitor II]	not effective
Cn1c2ccccc2c2c3c(c4c5ccccc5n(CCC#N)c4c21)CNC3=O [Gö6976]	prevented
CC(C)(C)n1nc(-c2ccc(Cl)cc2)c2c(N)ncnc21 [PP2]	prevented
COc1ccc2c(c1)c(C1=C(c3c[nH]c4ccccc34)C(=O)NC1=O)cn2CCCN(C)C [Gö6983]	not effective
